test name: Inhibition of bovine arterial Phosphodiesterase 4
Parameters: species or system Bos taurus
pIC50: −log10 of the molar value.
In this section we review reported pIC50 values for a set of molecules.
measured attribute: pIC50

In [3]: df
Out[3]:
                                   molecule  measured_attribute  relation_operator  recorded_value
0            Cc1[nH]c(=O)c(C#N)cc1-c1ccncc1               pIC50                  =            5.00
1  C[C@@H]1CC(=O)NN=C1c1ccc2c(NCc3ccccc3)ncnc2c1               pIC50                  <            5.00
2  C[C@H]1CC(=O)NN=C1c1ccc2c(NCc3ccccc3)ncnc2c1               pIC50                  <            5.00
3  CC1CC(=O)NN=C1c1ccc2c(NCc3ccccc3)ncnc2c1 (racemic)               pIC50                  <            5.00
4  COc1ccc(C2CNC(=O)C2)cc1OC1CCCC1 (stereo not given)               pIC50                  =            7.00

* * *

Here we list molecules with their recorded IC50 when tested on Phosphodiesterase 3B (Bos taurus, UniProt E1BN64).
Sequence (E1BN64 whole entry): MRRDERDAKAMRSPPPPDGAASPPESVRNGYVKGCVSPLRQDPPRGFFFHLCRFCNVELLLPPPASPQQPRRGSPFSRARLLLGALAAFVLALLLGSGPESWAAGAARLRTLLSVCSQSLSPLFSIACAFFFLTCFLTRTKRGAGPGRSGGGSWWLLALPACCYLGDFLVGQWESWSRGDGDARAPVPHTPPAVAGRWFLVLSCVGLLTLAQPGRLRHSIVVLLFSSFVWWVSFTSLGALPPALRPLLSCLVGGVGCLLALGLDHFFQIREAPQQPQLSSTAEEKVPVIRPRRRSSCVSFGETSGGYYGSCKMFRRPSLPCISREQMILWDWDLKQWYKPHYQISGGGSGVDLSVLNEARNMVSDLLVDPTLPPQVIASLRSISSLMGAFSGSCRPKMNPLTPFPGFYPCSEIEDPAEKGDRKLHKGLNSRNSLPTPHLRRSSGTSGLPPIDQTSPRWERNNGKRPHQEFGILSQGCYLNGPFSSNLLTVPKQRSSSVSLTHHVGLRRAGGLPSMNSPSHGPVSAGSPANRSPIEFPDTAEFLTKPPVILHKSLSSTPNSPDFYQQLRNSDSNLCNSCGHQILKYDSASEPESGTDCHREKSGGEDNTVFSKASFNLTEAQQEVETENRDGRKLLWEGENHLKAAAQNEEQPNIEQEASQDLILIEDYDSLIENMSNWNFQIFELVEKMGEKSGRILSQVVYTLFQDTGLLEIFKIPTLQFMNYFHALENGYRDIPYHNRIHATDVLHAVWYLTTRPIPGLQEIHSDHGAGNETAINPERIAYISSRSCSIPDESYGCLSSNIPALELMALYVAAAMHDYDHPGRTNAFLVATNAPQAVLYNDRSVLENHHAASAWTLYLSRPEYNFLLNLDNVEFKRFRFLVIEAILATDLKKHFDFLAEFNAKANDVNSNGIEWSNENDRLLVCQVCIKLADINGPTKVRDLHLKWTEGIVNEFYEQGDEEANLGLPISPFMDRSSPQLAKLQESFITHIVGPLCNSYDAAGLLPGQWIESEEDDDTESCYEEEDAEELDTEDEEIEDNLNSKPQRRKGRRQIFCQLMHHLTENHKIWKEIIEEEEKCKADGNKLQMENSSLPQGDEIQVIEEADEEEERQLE
measured attribute: IC50 (nM)

>>> df
                               smiles_entry  recorded_value
0            Cc1[nH]c(=O)c(C#N)cc1-c1ccncc1            1000
1  Nc1nc2c(ncn2[C@@H]2O[C@@H]3COP(=O)(O)O[C@H]3[C@H]2O)c(=O)[nH]1             100
